# target or test system: BRD9 (Homo sapiens, UniProt Q9H8M2)
# Sequence (Q9H8M2 1-597): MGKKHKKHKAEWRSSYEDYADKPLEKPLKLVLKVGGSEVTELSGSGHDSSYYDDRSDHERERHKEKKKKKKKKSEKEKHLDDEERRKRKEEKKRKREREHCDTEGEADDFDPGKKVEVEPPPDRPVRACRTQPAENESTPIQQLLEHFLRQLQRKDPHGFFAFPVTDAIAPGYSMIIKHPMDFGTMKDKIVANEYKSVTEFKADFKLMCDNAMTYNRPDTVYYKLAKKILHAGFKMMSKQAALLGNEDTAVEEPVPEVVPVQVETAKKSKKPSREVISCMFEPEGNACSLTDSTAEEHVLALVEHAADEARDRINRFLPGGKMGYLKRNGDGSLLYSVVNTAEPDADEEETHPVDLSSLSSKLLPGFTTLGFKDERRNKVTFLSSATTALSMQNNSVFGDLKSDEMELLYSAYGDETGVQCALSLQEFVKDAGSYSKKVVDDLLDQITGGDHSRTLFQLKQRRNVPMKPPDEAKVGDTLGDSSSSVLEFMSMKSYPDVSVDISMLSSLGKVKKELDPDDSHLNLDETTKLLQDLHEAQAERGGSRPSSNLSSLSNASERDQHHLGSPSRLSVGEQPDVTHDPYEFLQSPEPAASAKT
# protocol notes: BRD9 degradation, HiBiT-BRD9 KI HEK293 (LgBiT) cells, NanoGlo Lytic Endpoint assay (Assay Protocol 1)
# Assay type: cell-based
# condition label: HEK293; Assay protocol 1; BRD9 degradation; read-out: Dmax
Listing of entries alongside the reported Dmax.
experimental endpoint: Dmax

>>> obs_value("COc1cc(-c2cn(C)c(=O)c(C)c2C)cc(OC)c1CN1CCN(Cc2cccc3c2CCN(C(=O)/C(C#N)=C/C2(C(F)(F)F)CCC2)C3C)CC1 (mixture of isomers)")
"40 to 70%"
>>> obs_value("COc1cc(-c2cn(C)c(=O)c(C)c2C)cc(OC)c1CN1CCN(C(=O)c2cccc(C3CCCN3C(=O)/C(C#N)=C/C(C)(C)C)c2)CC1 (mixture of isomers)")
"> 75%"
>>> obs_value("COc1cc(-c2cn(C)c(=O)c(C)c2C)cc(OC)c1CN1CC2CC(C1)N2Cc1cccc2c1CCN(C(=O)/C(C#N)=C/c1cccc(Br)n1)C2C (mixture of isomers)")
"40 to 70%"
>>> obs_value("COc1cc(-c2cn(C)c(=O)c(C)c2C)cc(OC)c1CN1CC2CC(C1)N2Cc1cccc2c1CCN(C(=O)/C(C#N)=C/c1ccnc(C)n1)C2C (mixture of isomers)")
"> 75%"
>>> obs_value("COc1cc(-c2cn(C)c(=O)c(C)c2C)cc(OC)c1CN(C)C(=O)c1ccc2c(c1)CCN(C(=O)/C(C#N)=C/c1cccc(Br)n1)C2C (mixture of isomers)")
"40 to 70%"
